experiment.summary: qHTS assay to identify small molecule antagonists of the estrogen related receptor signaling pathway with the pleiotropic PPARgamma coactivator (PGC) from Tox21 10K library (AID 1224841); also: actives are mostly falling curves and most rising ones were filed inactive; nearly all actives have a fitted effect of over 50% in size
applied.conditions: PGC/ERR reporter cell line, ONE-Glo luciferase, 18 h; series mostly up to 92.4 µM
Records with an inconclusive call do not appear. Active and inactive are the calls of the source. No rule for the calls is given here.
Your reply should match one of these outcome classes. active, inactive

Exercise: Assay result, entry Clc1ccc(C(c2ccc(Cl)cc2)C(Cl)Cl)cc1 — outcome?
Key: inactive

Exercise: Assay result, entry c1ccc2c(c1)cc1ccc3cccc4ccc2c1c34 — outcome?
Key: inactive

Exercise: Assay result, entry COP(=O)(OC)O/C(=C\Cl)c1cc(Cl)c(Cl)cc1Cl — outcome?
Key: active

* * *

study.system: Glucocorticoid receptor (Homo sapiens) (UniProt P04150)
Sequence (P04150 whole entry, looked up): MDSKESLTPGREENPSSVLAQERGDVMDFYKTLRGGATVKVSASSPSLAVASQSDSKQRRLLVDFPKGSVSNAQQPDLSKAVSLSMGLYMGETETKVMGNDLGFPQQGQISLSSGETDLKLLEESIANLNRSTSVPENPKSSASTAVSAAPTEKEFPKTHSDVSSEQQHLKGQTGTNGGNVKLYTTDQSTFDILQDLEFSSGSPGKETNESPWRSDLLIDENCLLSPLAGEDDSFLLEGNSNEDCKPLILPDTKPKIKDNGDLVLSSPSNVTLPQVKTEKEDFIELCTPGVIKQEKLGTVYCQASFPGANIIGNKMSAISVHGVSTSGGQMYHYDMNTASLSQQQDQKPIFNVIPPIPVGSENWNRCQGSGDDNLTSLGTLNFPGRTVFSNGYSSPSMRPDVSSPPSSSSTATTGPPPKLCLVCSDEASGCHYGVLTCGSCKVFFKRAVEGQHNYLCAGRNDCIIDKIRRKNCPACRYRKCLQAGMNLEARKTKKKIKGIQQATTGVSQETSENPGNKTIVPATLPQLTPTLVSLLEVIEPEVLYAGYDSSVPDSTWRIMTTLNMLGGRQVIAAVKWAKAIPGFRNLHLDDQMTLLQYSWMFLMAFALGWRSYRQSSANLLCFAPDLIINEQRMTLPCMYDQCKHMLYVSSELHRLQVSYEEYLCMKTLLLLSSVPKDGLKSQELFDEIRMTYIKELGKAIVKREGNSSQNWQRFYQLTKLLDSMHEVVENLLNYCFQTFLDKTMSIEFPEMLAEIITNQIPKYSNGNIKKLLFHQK
experiment.summary: qHTS assay to identify small molecule antagonists of the glucocorticoid receptor (GR) signaling pathway (AID 720692)
applied.conditions: GR-bla HeLa, beta-lactamase FRET ratio, dexamethasone-stimulated, 18 h; series mostly up to 58.5 µM
Results filed as inconclusive are left out. Active and inactive are the calls of the source. Calls follow the shape of the dose curve; as a rule, active = well fitted inhibition curve with a large enough effect in the signal ratio in the repeat runs (not every such curve was filed as active); inconclusive = weak or mixed curves, or effect the other way; inactive = no such curve, though single readings can be large or run the other way; the % refers to the signal ratio.
Your reply should match one of these outcome classes. 1.0 for active, 0.0 for inactive

Exercise: Assay result, entry Cc1c([N+](=O)[O-])c(C)c([N+](=O)[O-])c(C(C)(C)C)c1[N+](=O)[O-] — outcome?
Key: 0.0

Exercise: Assay result, entry COc1c2c(cc3c1OCO3)CCN(C)C2 — outcome?
Key: 0.0

Exercise: Assay result, entry CCOP(=O)(Sc1ccccc1)Sc1ccccc1 — outcome?
Key: 0.0

Exercise: Assay result, entry c1ccc2nc(N3CCNCC3)ccc2c1 — outcome?
Key: 0.0

Exercise: Assay result, entry CC(C)Br — outcome?
Key: 0.0

Exercise: Assay result, entry CN(C)CCc1c[nH]c2ccccc12 — outcome?
Key: 0.0

Exercise: Assay result, entry CN — outcome?
Key: 0.0

Exercise: Assay result, entry Oc1cc(Cl)cc(Cl)c1 — outcome?
Key: 0.0

Exercise: Assay result, entry O=P(Cl)(Cl)Cl — outcome?
Key: 0.0

Exercise: Assay result, entry CNC(=O)CSP(=O)(OC)OC — outcome?
Key: 0.0

Exercise: Assay result, entry [O]=[Cr][O][Cr]=[O] — outcome?
Key: 0.0

Exercise: Assay result, entry Clc1cc(Cl)c(-c2cc(Cl)c(Cl)cc2Cl)cc1Cl — outcome?
Key: 0.0

Exercise: Assay result, entry CCC[CH2][Sn]([CH2]CCC)([O]C(C)=O)[O]C(C)=O — outcome?
Key: 1.0

Exercise: Assay result, entry CC[C@]1(O)CC[C@H]2[C@@H]3CCC4=CCCC[C@@H]4[C@H]3CC[C@@]21C — outcome?
Key: 1.0

Exercise: Assay result, entry CNC(=O)O/N=C(\C)C(C)S(C)(=O)=O (centres undefined) — outcome?
Key: 0.0

Exercise: Assay result, entry CCOC(=O)CCN(SN(C)C(=O)Oc1cccc2c1OC(C)(C)C2)C(C)C — outcome?
Key: 0.0

Exercise: Assay result, entry COC(=O)C(C)N(C(=O)c1ccco1)c1c(C)cccc1C (centres undefined) — outcome?
Key: 0.0

Exercise: Assay result, entry CCNc1nc(NC(C)C(C)C)nc(SC)n1 (centres undefined) — outcome?
Key: 0.0

Exercise: Assay result, entry O=[N+]([O-])C(Br)Br — outcome?
Key: 0.0

Exercise: Assay result, entry C#CCO — outcome?
Key: 0.0

Exercise: Assay result, entry Oc1cccc(Cl)c1Cl — outcome?
Key: 0.0

Exercise: Assay result, entry Cc1ccccc1OP(=O)(Oc1ccccc1C)Oc1ccccc1C — outcome?
Key: 1.0

Exercise: Assay result, entry COCCC#N — outcome?
Key: 0.0

Exercise: Assay result, entry CC(C)N(C(=O)CCl)c1ccccc1 — outcome?
Key: 1.0
